Values from the supplement of paper PMC10657565

test system: HCC1806; experiment: relative cell viability vs DMSO control (% of DMSO control); higher = less growth inhibition (higher viability); details: 3 µM; treatment time: 72 h
relative cell viability: recorded values
READOUT: relative cell viability

• CNS(=O)(=O)Nc1nccc(Cc2c(C)c3ccc(Oc4ncccn4)cc3oc2=O)c1F = 73.7
• C[C@@H](NC(=O)c1ncnc(N)c1Cl)c1ncc(C(=O)Nc2cc(C(F)(F)F)c(Cl)cn2)s1 = 101
• C[C@]12O[C@H](C[C@]1(O)CO)n1c3ccccc3c3c4c(c5c6ccccc6n2c5c31)CNC4=O = 2.9
• CN1CCN(c2nc(C3=C(c4c[nH]c5ccccc45)C(=O)NC3=O)c3ccccc3n2)CC1 = 103
• Cc1ccc(-n2nc(C(C)(C)C)cc2NC(=O)NCc2cc(F)ccc2Oc2ccc3c(cnn3CCO)c2)cc1 = 88.3
• COCCN1CCN(Cc2ccc(-c3n[nH]c4c3C(=O)c3c(NC(=O)NN5CCOCC5)cccc3-4)cc2)CC1 = 9.82
• CN[C@@H]1C[C@H]2O[C@@](C)([C@@H]1OC)n1c3ccccc3c3c4c(c5c6ccccc6n2c5c31)C(=O)N[C@H]4O = 2.19

====

system: SKBR3; test: relative cell viability vs DMSO control (% of DMSO control); higher = less growth inhibition (higher viability); details: 0.01 µM; treatment time: 72 h
# Lookup of reported relative cell viability keyed by entry
READOUT: relative cell viability

* c1cc(OCCN2CCCCC2)cc(-c2n[nH]c3ccc(-c4nnc[nH]4)cc23)c1 | 104
* Cc1c(F)cc(C(=O)NC2CC2)cc1-c1ccc(C(=O)NCC(C)(C)C)cn1 | 102
* Cc1cc(Nc2ncc(Cl)c(Nc3ccccc3S(=O)(=O)C(C)C)n2)c(OC(C)C)cc1C1CCNCC1 | 105
* CC(C)c1cc(CNc2nc(Nc3cc(C4CC4)[nH]n3)cc(N3CCN(C)CC3)n2)on1 | 101
* COCc1c(-c2ccc(NC(=O)Nc3cc(C(F)(F)F)ccc3F)c(F)c2)c2c(N)ncnn2c1CN1CCOCC1 | 104
* COCCN1CCN(Cc2ccc(-c3n[nH]c4c3C(=O)c3c(NC(=O)NN5CCOCC5)cccc3-4)cc2)CC1 | 71
* COc1cc2ncnc(Nc3ccc(O)cc3)c2cc1OC | 105
* COC(=O)[C@@]1(O)C[C@H]2O[C@]1(C)n1c3ccccc3c3c4c(c5c6ccccc6n2c5c31)C(=O)NC4 [K-252a] | 90.4

====

Each record here notes measured relative cell viability.
system: SUM159; assay: relative cell viability vs DMSO control (% of DMSO control); higher = less growth inhibition (higher viability); details: 0.01 µM; treatment time: 72 h
READOUT: relative cell viability

• Cc1c(F)cc(C(=O)NC2CC2)cc1-c1ccc(C(=O)NCC(C)(C)C)cn1 = 97.2
• COCc1c(-c2ccc(NC(=O)Nc3cc(C(F)(F)F)ccc3F)c(F)c2)c2c(N)ncnn2c1CN1CCOCC1 = 99
• CC(C)c1cc(CNc2nc(Nc3cc(C4CC4)[nH]n3)cc(N3CCN(C)CC3)n2)on1 = 61.4
• Cc1cc(Nc2ncc(Cl)c(Nc3ccccc3S(=O)(=O)C(C)C)n2)c(OC(C)C)cc1C1CCNCC1 = 104
• COC(=O)[C@@]1(O)C[C@H]2O[C@]1(C)n1c3ccccc3c3c4c(c5c6ccccc6n2c5c31)C(=O)NC4 [K-252a] = 63.8
• c1cc(OCCN2CCCCC2)cc(-c2n[nH]c3ccc(-c4nnc[nH]4)cc23)c1 = 102
• COc1cc2ncnc(Nc3ccc(O)cc3)c2cc1OC = 103
• COCCN1CCN(Cc2ccc(-c3n[nH]c4c3C(=O)c3c(NC(=O)NN5CCOCC5)cccc3-4)cc2)CC1 = 60.4
